What follows is a record of pIC50 for Autotaxin (Homo sapiens (Human)).
pIC50: −log10 of the molar value. Counter-ions that a name gives are not always drawn.

Solved cases (2 shown):
- molecule: "CC(C)[C@@H](NC(=O)c1cc(C(F)(F)F)ccc1F)C(=O)N1CCC2(CC1)C(=O)N(C)C(=O)N2Cc1cccc(Cl)c1"
  assayed target: "Autotaxin (Homo sapiens (Human))"
  recorded result: "> 6.30"
- molecule: "CC(C)[C@@H](NC(=O)c1cc(OC(F)F)ccc1F)C(=O)N1CCC2(CC1)C(=O)N(C)C(=O)N2c1ccc2[nH]ncc2c1"
  assayed target: "Autotaxin (Homo sapiens (Human))"
  recorded result: "> 6.30"

Exercise: What value of pIC50 on Autotaxin (Homo sapiens (Human)) does `CC(C)[C@@H](NC(=O)c1nccs1)C(=O)N1CCC2(CC1)C(=O)N(C)C(=O)N2c1ccc2[nH]ncc2c1` have?
Solution: ≤ 6.00

Exercise: What value of pIC50 on Autotaxin (Homo sapiens (Human)) does `[2H]c1ccc(N2C(=O)N(C)C(=O)C23CCN(C(=O)[C@H](NC(=O)c2cc(C(F)(F)F)ccc2F)C(C)C)CC3)cc1` have?
Solution: > 6.30

Exercise: What value of pIC50 on Autotaxin (Homo sapiens (Human)) does `COc1cccc(N2C(=O)N(C)C(=O)C23CCN(C(=O)[C@H](NC(=O)c2cc(C(F)(F)F)ccc2F)C(C)C)CC3)c1` have?
Solution: > 6.30

Exercise: What value of pIC50 on Autotaxin (Homo sapiens (Human)) does `CC(C)[C@@H](NC(=O)c1cc(C(F)(F)F)ccc1F)C(=O)N1CCC2(CC1)C(=O)N(C)C(=O)N2Cc1ccn2ccnc2c1` have?
Solution: 6.00 to 6.30

Exercise: What value of pIC50 on Autotaxin (Homo sapiens (Human)) does `Cc1csc(CN2C(=O)N(C)C(=O)C23CCN(C(=O)[C@H](NC(=O)c2cc(C(F)(F)F)ccc2F)C(C)C)CC3)n1` have?
Solution: ≤ 6.00

Exercise: What value of pIC50 on Autotaxin (Homo sapiens (Human)) does `CN1C(=O)N(c2ccc3[nH]ncc3c2)C2(CCN(C(=O)[C@H](NC(=O)c3cc(C(F)(F)F)ccc3F)C3CCCC3)CC2)C1=O` have?
Solution: > 6.30

Exercise: What value of pIC50 on Autotaxin (Homo sapiens (Human)) does `COC(=O)Nc1ccc(N2C(=O)N(C)C(=O)C23CCN(C(=O)[C@H](NC(=O)c2cc(C(F)(F)F)ccc2F)C(C)C)CC3)cc1` have?
Solution: 6.00 to 6.30

Exercise: What value of pIC50 on Autotaxin (Homo sapiens (Human)) does `CCc1cccc(C(=O)N[C@@H](C(=O)N2CCC3(CC2)C(=O)N(C)C(=O)N3c2ccccc2)C(C)C)c1` have?
Solution: 6.00 to 6.30

Exercise: What value of pIC50 on Autotaxin (Homo sapiens (Human)) does CC(C)[C@@H](NC(=O)c1cc(C(F)(F)F)ccc1F)C(=O)N1CCC2(CC1)C(=O)N(C)C(=O)N2c1ccc(NC2CNC2)cc1 [Example 86, trifluoroacetic Acid Salt] have?
Solution: ≤ 6.00

Exercise: What value of pIC50 on Autotaxin (Homo sapiens (Human)) does `Cc1cc(F)cc(C(=O)N[C@@H](C(=O)N2CCC3(CC2)C(=O)N(C)CN3c2ccccc2)C(C)C)c1` have?
Solution: > 6.30

Exercise: What value of pIC50 on Autotaxin (Homo sapiens (Human)) does `CC(C)[C@@H](NC(=O)c1cc(C(F)(F)F)ccc1F)C(=O)N1CCC2(CC1)C(=O)N(C)C(=O)N2c1cnn(C)c1` have?
Solution: ≤ 6.00

----------
pIC50: −log10 of the molar value.
What follows is a record of pIC50 for Autotaxin (Homo sapiens (Human), UniProt Q13822).

Solved cases (4 shown):
- entry smiles: "CCc1cc(F)cc(C(=O)N[C@@H](C(=O)N2CCC3(CC2)C(=O)N(C)C(=O)N3c2ccccc2)C(C)C)c1"
  assayed target: "Autotaxin (Homo sapiens (Human), UniProt Q13822)"
  recorded result: "6.00 to 6.30"
- entry smiles: "CC(C)[C@@H](NC(=O)c1cc(C(F)(F)F)ccc1F)C(=O)N1CCC2(CC1)C(=O)N(C)C(=O)N2c1ccc(NC(=O)C2CC2)cc1"
  assayed target: "Autotaxin (Homo sapiens (Human), UniProt Q13822)"
  recorded result: "6.00 to 6.30"
- entry smiles: "CC(C)[C@@H](NC(=O)c1cc(Cl)ccc1F)C(=O)N1CCC2(CC1)C(=O)N(C)C(=O)N2c1ccccc1"
  assayed target: "Autotaxin (Homo sapiens (Human), UniProt Q13822)"
  recorded result: "> 6.30"
- entry smiles: "CC(C)[C@@H](NC(=O)c1cc(C2CC2)ccc1F)C(=O)N1CCC2(CC1)C(=O)N(C)C(=O)N2c1ccc(C(=O)O)cc1"
  assayed target: "Autotaxin (Homo sapiens (Human), UniProt Q13822)"
  recorded result: "> 6.30"

Exercise: What value of pIC50 on Autotaxin (Homo sapiens (Human), UniProt Q13822) does `CC(C)[C@@H](NC(=O)c1cc(C(F)(F)F)ccc1F)C(=O)N1CCC2(CC1)C(=O)N(C)C(=O)N2c1ccc2c(cnn2C)c1` have?
Solution: > 6.30

Exercise: What value of pIC50 on Autotaxin (Homo sapiens (Human), UniProt Q13822) does `COc1ccc(N2C(=O)N(C)C(=O)C23CCN(C(=O)[C@H](NC(=O)c2cc(C4CC4)ccc2F)C(C)C)CC3)cc1` have?
Solution: > 6.30

----------
What follows is a record of IC50 for Autotaxin (Homo sapiens (Human), UniProt Q13822).

- entry smiles: "CC(C)[C@@H](NC(=O)c1cc(Cl)cc(C(F)(F)F)c1)C(=O)N1CCC2(CC1)C(=O)N(C)C(=O)N2c1ccc2[nH]ncc2c1"
  IC50: "< 0.5 µM"
- entry smiles: "CC(C)[C@@H](NC(=O)c1cc(C(F)(F)F)ccc1F)C(=O)N1CCC2(CC1)C(=O)N(C)C(=O)N2c1ccc(C#N)cc1"
  IC50: "< 0.5 µM"
- entry smiles: "CC(C)[C@@H](NC(=O)c1cc(C(F)(F)F)ccc1F)C(=O)N1CCC2(CC1)C(=O)N(C)C(=O)N2c1ccc(F)cc1"
  IC50: "< 0.5 µM"
- entry smiles: "CC(C)[C@@H](NC(=O)c1cc(C(F)(F)F)ccc1F)C(=O)N1CCC2(CC1)C(=O)N(C)C(=O)N2c1ccc2[nH]ncc2c1"
  IC50: "< 0.5 µM"
- entry smiles: "CC(C)[C@@H](NC(=O)c1cc(C(F)(F)F)ccc1F)C(=O)N1CCC2(CC1)C(=O)N(C)C(=O)N2[C@H](C)c1ccccc1"
  IC50: "≥ 1 µM"

From here, focus on the item given below.
Exercise: What value of IC50 on Autotaxin (Homo sapiens (Human), UniProt Q13822) does `Cc1ccc(C(F)(F)F)cc1C(=O)N[C@@H](C(=O)N1CCC2(CC1)C(=O)N(C)C(=O)N2c1ccc2[nH]ncc2c1)C(C)C` have?
Solution: ≥ 1 µM

----------
Target: Autotaxin (Homo sapiens (Human), UniProt Q13822)
Assay: Autotaxin LPC Cascade Assay
Type: biochemical
Conditions: Autotaxin 5 nM, LPC 100 μM, choline oxidase/HRP/Ampliflu Red fluorescence read-out, 2% DMSO, RT; read-out: IC50 ATX Activity
pIC50: −log10 of the molar value.
Entries and their pIC50

- entry smiles: "CCc1ccc(F)c(C(=O)N[C@@H](C(=O)N2CCC3(CC2)C(=O)N(C)C(=O)N3c2ccc(OC)cc2)C(C)C)c1"
  pIC50: "> 6.30"
- entry smiles: "COc1cc(CN2C(=O)N(C)C(=O)C23CCN(C(=O)[C@H](NC(=O)c2cc(C(F)(F)F)ccc2F)C(C)C)CC3)ccn1"
  pIC50: "> 6.30"
- entry smiles: "CC(C)[C@@H](NC(=O)c1cc(C(F)(F)F)ccc1F)C(=O)N1CCC2(CC1)C(=O)N(C)C(=O)N2c1ccc(Cl)cc1"
  pIC50: "> 6.30"
- entry smiles: "CC(C)[C@@H](NC(=O)c1cc(OC(F)F)ccc1F)C(=O)N1CCC2(CC1)C(=O)N(C)C(=O)N2c1ccc(-c2nn[nH]n2)cc1"
  pIC50: "> 6.30"
- entry smiles: "CC(C)[C@@H](NC(=O)c1ccc(Cl)c(Cl)c1)C(=O)N1CCC2(CC1)C(=O)N(C)C(=O)N2c1ccccc1"
  pIC50: "≤ 6.00"
- entry smiles: "CC(C)[C@@H](NC(=O)c1cc(C(F)(F)F)ccc1F)C(=O)N1CCC2(CC1)C(=O)N(C)C(=O)N2c1cccc(S(C)(=O)=O)c1"
  pIC50: "≤ 6.00"
- entry smiles: "CC(C)[C@@H](NC(=O)c1cc(C(F)(F)F)ccc1F)C(=O)N1CCC2(CC1)C(=O)N(C)C(=O)N2Cc1cccc(C#N)c1"
  pIC50: "> 6.30"
- entry smiles: "CC(C)[C@@H](NC(=O)c1cc(C2CC2)ccc1F)C(=O)N1CCC2(CC1)C(=O)N(C)CN2c1ccc(C(=O)O)cc1"
  pIC50: "> 6.30"
- entry smiles: "CC(C)[C@@H](NC(=O)c1cc(C(F)(F)F)ccc1F)C(=O)N1CCC2(CC1)C(=O)N(C)C(=O)N2c1ccc(C(=O)O)cc1"
  pIC50: "> 6.30"
- entry smiles: "Cc1cccc(C(=O)N[C@@H](C(=O)N2CCC3(CC2)C(=O)N(C)CN3c2ccc(C(N)=O)cc2)C(C)C)c1F"
  pIC50: "6.00 to 6.30"

Exercise: What value of pIC50 on Autotaxin (Homo sapiens (Human), UniProt Q13822) does `CC(C)[C@@H](NC(=O)c1cc(C(F)(F)F)ccc1F)C(=O)N1CCC2(CC1)C(=O)N(C)C(=O)N2C1CC1` have?
Solution: 6.00 to 6.30

Exercise: What value of pIC50 on Autotaxin (Homo sapiens (Human), UniProt Q13822) does `CC(C)[C@@H](NC(=O)c1cc(C(F)(F)F)ccc1F)C(=O)N1CCC2(CC1)C(=O)N(C)C(=O)N2c1ccc(C(F)(F)F)cc1` have?
Solution: > 6.30

Exercise: What value of pIC50 on Autotaxin (Homo sapiens (Human), UniProt Q13822) does `Cc1cccc(C(=O)N[C@@H](C(=O)N2CCC3(CC2)C(=O)N(C)CN3c2ccc(Cl)cc2)C(C)C)c1` have?
Solution: > 6.30
